Assay read-out Ki on Coagulation factor X (Homo sapiens, UniProt P00742); records merged from the literature.
Endpoint: Ki (µM)

smiles_representation=CCCc1nc2ccc(OC3CCN(C(C)=N)CC3)cc2n1Cc1ccc2ccc(C(=N)N)cc2c1 target_desc="Coagulation factor X (Homo sapiens, UniProt P00742)" numeric_value=0.00023

a. N=C(N)c1cccc(Oc2nc(Oc3cccc(C(=N)N)c3)c(F)cc2F)c1
b. CC(C)c1ccc(CCNS(=O)(=O)c2cc(C(=N)N)ccc2O)c(OCC(=O)O)c1
c. COc1ccc2ccc(S(=O)(=O)N[C@H]3CCN(Cc4cc(N)cc(C(=N)N)c4)C3=O)cc2c1
Arrange items by their Ki values in increasing order. Order the labels as requested and list them.
a, b, c

* * *

Collected Ki for Coagulation factor X (Homo sapiens) across several studies; compounds listed below.
Endpoint: Ki (nM)

Use these answered entries as a reference point.
smiles_representation=Cc1c(F)c(Oc2cccc(N(C)C)c2)nc(Oc2cc(C(=N)N)ccc2NS(C)(=O)=O)c1F endpoint=Ki units_of_measure=nM numeric_value=5500
smiles_representation=Cc1c(F)c(Oc2cccc(C(=N)N)c2)nc(Oc2cccc(C(=O)C(C)C)c2)c1F endpoint=Ki units_of_measure=nM numeric_value=2100
smiles_representation=N=C(N)c1cccc(C(=O)N[C@@H](C(=O)NCc2ccccc2)c2ccccc2)c1 endpoint=Ki units_of_measure=nM numeric_value=910
smiles_representation=COc1cc(CNC(=O)c2cc3c(O)cccc3n2Cc2cccc(C(=N)N)c2)cc(OC)c1 endpoint=Ki units_of_measure=nM numeric_value=193
smiles_representation=N=C(N)c1ccc(O)c(/C=C/CNC(=O)c2ccc(-c3ccccn3)s2)c1 endpoint=Ki units_of_measure=nM numeric_value=37

A. CN(C)C(=N)c1ccc(C(=O)Nc2ccc(Cl)cc2C(=O)Nc2ccc(Cl)cn2)c(F)c1
B. CN(CC(=O)N[C@@H](CCCCN)C(=O)C(=O)Nc1ccc(Oc2cccnc2)cc1)C(=O)c1ccccc1Sc1ccccc1C#N
C. Cc1ccc(NS(=O)(=O)Cc2ccc(F)cc2)c(=O)n1CC(=O)N[C@H]1CCc2nc(N)sc2C1
Put these in order: smallest Ki first, largest last. # the answer lists labels in the order requested
A, B, C
(A: 0.06 nM, B: 60 nM, C: 176000 nM)

* * *

Collected pKi for Coagulation factor X (Homo sapiens, UniProt P00742) across several studies; compounds listed below.
pKi: −log10 of the molar value.
Endpoint: pKi

A. COCc1ccc(-c2cccc(S(=O)(=O)N[C@@H](Cc3cccc(C(=N)N)c3)C(=O)N3CCC(NC(=O)NC(C)(C)C)CC3)c2)cc1
B. COC(=O)CC(CCc1ccc(C(=N)N)cc1)c1cccc(C(=N)N)c1 (centres undefined)
C. CC(=N)N1CCC(Oc2ccc(NC/C=C/c3cccc(C(=N)N)c3)cc2)CC1
Ordering criterion: pKi; begin with the maximum. Would you mind listing the labels in the order asked for?
C, B, A
(C: 8.12, B: 7.47, A: 6.75)

* * *

Literature-derived pKi for Coagulation factor X (Homo sapiens) follows.
pKi: −log10 of the molar value.
Endpoint: pKi

Examples with answers:
smiles_representation=N=C(N)c1cccc(-c2ncsc2C(=O)Nc2ccc(-c3ccccc3S(N)(=O)=O)cc2)c1.O=C(O)C(F)(F)F endpoint=pKi numeric_value=9.09
smiles_representation=COc1ccc(CCN(Cc2ccc3ccc(C(=N)N)cc3c2)C(=O)c2cccc3ccccc23)cc1OC endpoint=pKi numeric_value=6.38
smiles_representation=CN(C)Cc1ccccc1-c1ccc(-n2cnc3c(C(F)(F)F)nn(-c4ccc5onc(N)c5c4)c3c2=O)cc1 endpoint=pKi numeric_value=9.46
smiles_representation=Cc1cccc2c1cc(C(=O)NCc1cccc(-c3ccccc3)c1)n2Cc1cccc(C(=N)N)c1 endpoint=pKi numeric_value=6.49
smiles_representation=CC(C)c1cc(C(C)C)c(S(=O)(=O)N[C@@H](Cc2cccc(C(=N)N)c2)C(=O)N2CCCN(C(=O)CCN=C(N)N)CC2)c(C(C)C)c1 endpoint=pKi numeric_value=5.92

1. CCOC(=O)COc1cccc(C(=O)Nc2ccc(Cl)cc2)c1NC(=O)c1sc2ccccc2c1Cl
2. Cc1cc(C(=O)Nc2ccc(-c3ccccc3F)cc2)n(-c2cccc(C(=N)N)c2)n1
Min pKi? 1 | 2 Pick one; state its label.
1
(1: 7.66, 2: 9.34)

* * *

The entries that follow carry Ki values tested on Coagulation factor X (Homo sapiens), drawn from several published reports.
Endpoint: Ki (nM)

Answered cases to consult:
compound="COC(=O)CC1(C(=O)Nc2ccc(-c3ccccc3C(F)(F)F)cc2)CC(c2cccc(C(=N)N)c2)=NO1 (centres undefined)" numeric_value=28
compound=CC(=O)Oc1cc(C(=O)NCC2CCN(c3ccncc3)CC2)cc(OCCc2ccc(Cl)cc2Cl)c1Br numeric_value=285
compound="CCOC(=O)C1CCN(c2ccc(N3C[C@H](CNC(=O)c4ccc(Cl)s4)OC3=O)cc2)CC1 (mixture of isomers)" numeric_value=769
compound=COc1ccc2ccc(S(=O)(=O)N(Cc3ccccn3)[C@H]3CCN(Cc4cccc(C(=N)N)c4)C3=O)cc2c1 numeric_value=31
compound=N=C(N)c1ccc(CNC(=O)[C@@H]2Cc3ccc(cc3)NC(=O)CCN3CCCN(CCC(=O)Nc4ccc(cc4)C[C@@H](NS(=O)(=O)Cc4ccccc4)C(=O)N2)CC3)cc1 numeric_value=8500
compound="CS(=O)(=O)c1ccccc1-c1ccc(N2CCCC(NS(=O)(=O)c3ccc(Cl)s3)C2=O)c(F)c1 (centres undefined)" numeric_value=5.3
compound="CC(C(=O)c1cc(C(F)(F)F)nn1-c1ccc2onc(N)c2c1)c1ccc(-c2ccccc2S(C)(=O)=O)cc1 (racemic)" numeric_value=4.7
compound=COC(=O)[C@H](Cc1cccc(C(=N)N)c1)[C@@H](CC(C)C)NC(=O)c1ccc(-c2cccc(CN)c2)cc1 numeric_value=0.4
compound=C#Cc1ccc(NC(=O)Cn2c(C(=O)NC3CCN(C(C)C)CC3)cc3ccccc32)cc1 numeric_value=49
compound="CNC(=O)Nc1ccc(-c2cccc([C@@H]3C[C@](C)(c4ccccc4)c4cc(C(=N)N)ccc4N3)c2)c(C(=O)O)c1 (racemic)" numeric_value=1140

P. N=C(N)c1cccc(Cn2c(C(=O)NCC34C[C@H]5C[C@@H](C3)C[C@@H](C4)C5)cc3c(O)cccc32)c1
Q. O=C1CN(S(=O)(=O)c2ccc(-c3ccc(Cl)s3)s2)CCN1Cc1cc2c[nH]ccc-2n1
Pick the one with the larger Ki: P vs Q Write down the label attached to your selection.
P
(P: 274 nM, Q: 23 nM)

A. CCNC(=O)OCC(Oc1cccc2sc(C(=N)N)cc12)c1ccccc1 (centres undefined)
B. Cc1c(C)c(S(=O)(=O)N[C@@H](Cc2cccc(C(=N)N)c2)C(=O)N2CCC(C)CC2)c(C)c2c1OC(C)(C)CC2
C. N=C(N)c1cccc(-c2ncccc2C(=O)Nc2ccc(-c3ccccc3S(N)(=O)=O)cc2)c1.O=C(O)C(F)(F)F
D. CN(C)CCN(C)Cc1csc(C(=O)Nc2ccc(Cl)cc2C(=O)Nc2ccc(Cl)cc2)c1Cl
Parameters: sort_field (Ki), sort_dir (desc). Give the order by naming the labels one after another as requested.
B, A, C, D

a. COc1ccc(-n2nc(N)c3c2C(=O)N(c2ccc(-c4ccccc4CN4CC[C@@H](O)C4)cc2)CC3)cc1
b. CC(C(=O)c1cc(C(F)(F)F)nn1-c1ccc2onc(N)c2c1)c1ccc(-c2ccccc2S(N)(=O)=O)cc1F (racemic)
c. N=C(N)c1ccc2ccc(CN(CCc3ccccn3)C(=O)c3cccc4ccccc34)cc2c1
d. N=C(N)c1cccc(Cn2c(C(=O)NCc3ccccc3Cl)cc3c(O)cccc32)c1
e. COc1ccc(-n2nc(C(F)(F)F)c3c2C(=O)N(c2ccc(-c4ccccc4CN(C)C)cc2)CC3)cc1
Order each entry by recorded Ki, climbing from the minimum. Give me the labels in the order the question wants.
e, b, a, c, d
(e: 0.3 nM, b: 2.3 nM, a: 6.7 nM, c: 104 nM, d: 1200 nM)

A. O=C(CCS(=O)(=O)c1ccc2cc(Cl)ccc2c1)N1CCN(c2cccc3nc(CO)cn23)CC1
B. CCOc1cc(OC(C)C)c(F)c(C(Nc2ccc(C(=N)N)cc2)c2nc(-c3ccccc3C(C)=O)c[nH]2)c1 (centres undefined)
C. O=C(Nc1ccc(Cl)cc1)c1cc(Cl)ccc1NC(=O)c1scc(Cn2ccnn2)c1Cl
Hey, can you sort those compounds up there by Ki, smallest first? Returns: the labels arranged in the requested order.
C, A, B

* * *

Note to self: these compounds have Ki reported for Coagulation factor X (Homo sapiens, UniProt P00742) in various publications.
Endpoint: Ki (nM)

# example entries with known answers
smiles_representation=COc1ccc2ccc(S(=O)(=O)N(Cc3cc[nH]n3)[C@H]3CCN(Cc4cccc(C(=N)N)c4)C3=O)cc2c1 endpoint=Ki numeric_value=21
smiles_representation=CC(C)c1cc(C(C)C)c(S(=O)(=O)N[C@@H](Cc2cccc(C(=N)N)c2)C(=O)N2CCN(C(=N)N)CC2)c(C(C)C)c1 endpoint=Ki numeric_value=3700
smiles_representation=Cc1c(F)c(Oc2cccc(C(=N)N)c2)nc(N2CCN(C3CCCCC3)CC2)c1F endpoint=Ki numeric_value=495

P. Cc1cccc2c1cc(C(=O)NCc1cc[n+]([O-])cc1)n2Cc1cccc(C(=N)N)c1
Q. O=C(Nc1ccc(Cl)cc1)c1cc(Cl)ccc1NC(=O)c1sc2ccccc2c1Cl
For the two items P and Q , which reports the higher Ki value? # respond with the chosen item's label
P

P. CS(=O)(=O)c1ccccc1N1CCC(NC(=O)c2cc(C(F)(F)F)nn2-c2ccccc2CN)CC1
Q. CN(C)Cc1ccccc1-c1ccc(N2CCCc3c(C(F)(F)F)nn(-c4ccc5onc(N)c5c4)c3C2=O)cc1
R. CNC(=O)[C@H](Cc1cccc(C(=N)N)c1)NS(=O)(=O)c1c(C(C)C)cc(C(C)C)cc1C(C)C
Put these in order: smallest Ki first, largest last. Put the labels in the requested order and list them out.
Q, P, R
(Q: 0.81 nM, P: 2.4 nM, R: 11000 nM)
